Measured growth, listed per entry for reference.
System: OVCAR-4 ovarian
experiment: NCI-60 one-dose screen, 48 h (100 = growth as untreated, 0 = no growth, -100 = all killed)
condition notes: 10 µM unless noted
About 83,000 compounds went through this panel and 20% of them were active in at least one assay; those are over-represented in the sample as a whole. Activity calls are given as the source filed them. How the source made its calls: active means growth percent below 10; inactive means the rest.

Please review the following examples before continuing.
Reading of growth for `CC(=C(c1ccc(OCCCN(C)C)cc1)c1ccc(OCCCN(C)C)cc1)c1ccc(Cl)cc1` with OVCAR-4 ovarian: 108% (inactive)

Entry `Cc1cc(=O)[nH]c(O)c1C#N` , OVCAR-4 ovarian data, growth value: 98.3% (inactive)

OVCAR-4 ovarian growth of `N#Cc1nc(-c2ccccc2)oc1N1CCC(C2(C(F)(F)F)N=N2)CC1` is 96.4% (inactive)

growth for OVCAR-4 ovarian with input `O=c1[nH][nH]c(-c2ccc(F)cc2)c1-c1nc2ccccc2s1` equals 106% (inactive)

Tested system OVCAR-4 ovarian; growth recorded for `C(=N\Nc1nc(N/N=C/c2ccc3c(c2)OCO3)nc(N2CCCCC2)n1)/c1ccc2c(c1)OCO2` was 110% (inactive)

More entries:
Tested on OVCAR-4 ovarian: `Cc1ccc2c(n1)C(=O)C(Cl)=C(Nc1ccccc1C(=O)OC(C)(C)C)C2=O` . Observed growth: -45.3% (active)

Entry `O=C(/C=C/c1csc(Br)n1)NO` , tested on OVCAR-4 ovarian, has a reported growth of 65.1% (inactive)

Recorded growth for `CN1CCN(c2ccc(Nc3nc(NCCCNS(=O)(=O)c4cccc(F)c4)c4sccc4n3)cc2)CC1` on OVCAR-4 ovarian was 18.3% (inactive)

Item `Cc1ccc(/C(N)=N/C(N)=N/c2nc3ccccc3s2)cc1` was tested on OVCAR-4 ovarian; the reported growth is 105% (inactive)

Value (growth, OVCAR-4 ovarian) for record `COc1cc(C(=O)c2cc(C(C)=O)c3ccc(C)cn23)cc(OC)c1OC` = 79.7% (inactive)
